This section presents compounds with their documented viscosity values.
Conditions: 343.15 K; 101.33 kPa; Liquid; Capillary tube (Ostwald / Ubbelohde) method
Field format: number, assumed mPa·s, no unit text.

Observe how each entry below is paired with its result.
compound: CCn1cc[n+](C)c1.N#CN=C=[N-] [1-ethyl-3-methylimidazolium dicyanamide]
unit string: mPa·s
viscosity: 5.36

compound: CCn1cc[n+](C)c1.O=S(=O)([N-]S(=O)(=O)C(F)(F)F)C(F)(F)F
unit string: mPa·s
viscosity: 9.54

compound: CCn1cc[n+](C)c1.F[B-](F)(F)F [1-ethyl-3-methylimidazolium tetrafluoroborate]
unit string: mPa·s
viscosity: 10.12

Here is another compound to look at.
Query: Looking for the measured viscosity of CCCCn1cc[n+](C)c1.F[B-](F)(F)F [1-butyl-3-methylimidazolium tetrafluoroborate] , can you help?
Response: 18.48
